# target_or_system: recombinant human IL17a (binding to its receptor IL17R) (Homo sapiens, UniProt Q16552)
# Construct: 177-IR (IL17R/Fc)
# Sequence (Q16552 20-155 limits assumed): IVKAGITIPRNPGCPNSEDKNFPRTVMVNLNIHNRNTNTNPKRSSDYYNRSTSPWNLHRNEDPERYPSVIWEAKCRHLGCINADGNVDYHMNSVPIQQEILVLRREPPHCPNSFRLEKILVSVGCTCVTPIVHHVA
# assay_remarks: IL-17 competition ELISA I (IL17a coated, IL17R/Fc binding)
Recorded measurements of IC50, one per entry

Illustrative cases are given below, each with its answer.
CC[C@H](C)[C@H](NC(=O)Cc1ccccc1)C(=O)Nc1ccc(C[C@H]2NC(=O)CC3(CCCC3)CC(=O)NCCCCCNC(=O)CNC2=O)cc1 [Compound 311]
100 to 1000 nM
O=C1CNC(=O)[C@@H](Cc2ccc(NC(=O)[C@H](Cc3ccccc3Cl)NC(=O)Cc3ccccc3)cc2)NC(=O)CC2(CCCC2)CC(=O)NCCCCCOC(=O)CN1 [Compound 322]
100 to 1000 nM

Enquiry: IC50 of C[C@@H](O)[C@@H]1NC(=O)[C@@H](Cc2ccc(NC(=O)[C@H](Cc3ccccc3Cl)NC(=O)Cc3ccccc3)cc2)NC(=O)CC2(CCCC2)CC(=O)NCCCCCNC1=O [Compound 321] on recombinant human IL17a (binding to its receptor IL17R) (Homo sapiens, UniProt Q16552)?
Return: 100 to 1000 nM

Enquiry: IC50 of O=C1CNC(=O)[C@@H](Cc2ccc(NC(=O)[C@H](Cc3ccccc3Cl)NC(=O)Cc3ccncc3)cc2)NC(=O)CC2(CCCC2)CC(=O)NCCCCCN1 [Compound 202] on recombinant human IL17a (binding to its receptor IL17R) (Homo sapiens, UniProt Q16552)?
Return: < 100 nM

Enquiry: IC50 of O=C1CC2(CCCC2)CC(=O)N[C@H](Cc2ccc(NC(=O)[C@H](Cc3ccccc3Cl)NC(=O)Cc3ccccc3)cc2)C(=O)N[C@H](Cc2ccccc2)C(=O)NCCCCCN1 [Compound 261] on recombinant human IL17a (binding to its receptor IL17R) (Homo sapiens, UniProt Q16552)?
Return: < 100 nM

Enquiry: IC50 of O=C1CC2(CCCC2)CC(=O)N[C@H](Cc2ccc(NC(=O)[C@@H](NC(=O)Cc3ccc(CO)cc3)C3CCCCC3)cc2)C(=O)NCCCCCCN1 [Compound 355] on recombinant human IL17a (binding to its receptor IL17R) (Homo sapiens, UniProt Q16552)?
Return: 1000 to 10000 nM

---

# target_or_system: recombinant human IL17a (binding to its receptor IL17R) (Homo sapiens, UniProt Q16552)
# Construct: 177-IR (IL17R/Fc)
# assay_remarks: IL-17 competition ELISA I (IL17a coated, IL17R/Fc binding)
pIC50: −log10 of the molar value.
Recorded measurements of pIC50, one per entry

Enquiry: Report pIC50 for `C[C@H]1NC(=O)[C@@H](Cc2ccc(NC(=O)[C@H](Cc3ccccc3Cl)NC(=O)c3cccnc3)cc2)NC(=O)CC2(CCCC2)CC(=O)N[C@H](C(=O)O)CCCCNC1=O` please.
Return: 6.00 to 7.00

Enquiry: Report pIC50 for `CC(C)[C@H](NC(=O)Cc1ccccc1)C(=O)Nc1ccc(C[C@H]2NC(=O)CC3(CCCC3)CC(=O)NCCCCCNC(=O)CNC2=O)cc1` please.
Return: 6.00 to 7.00

Enquiry: Report pIC50 for `O=C1CC2(CCCC2)CC(=O)N[C@H](Cc2ccc(NC(=O)[C@H](Cc3ccccc3Cl)NC(=O)Cc3ccccc3)cc2)C(=O)NCCCCCCCCCN1` please.
Return: 5.00 to 6.00
